Assay read-out pIC50 on human ACC2 (Homo sapiens (Human), UniProt O00763); records merged from the literature.
pIC50: −log10 of the molar value.
OUTCOME_MEASURE: pIC50

>  <COMPOUND>
CC(=O)N[C@@H](C)c1ccc(O[C@@H]2CCN(c3ccnc(N4CCC4)c3C)C2)cc1

>  <OUTCOME_MEASURE>
pIC50

>  <QUANTITATIVE_READOUT>
6.22

$$$$
>  <COMPOUND>
CC(=O)N[C@@H](C)c1ccc(O[C@@H]2CCN(c3ccnc(OC(C)C)c3F)C2)cc1

>  <OUTCOME_MEASURE>
pIC50

>  <QUANTITATIVE_READOUT>
7.10

$$$$
>  <COMPOUND>
CCNC(=O)NC(C)Cc1ccc(C#Cc2ccc(OCC)cc2)cc1 (centres unmarked)

>  <OUTCOME_MEASURE>
pIC50

>  <QUANTITATIVE_READOUT>
6.64

$$$$
>  <COMPOUND>
CC(=O)NC(C)Cc1ccc(C#Cc2cnc(NC(C)C(C)C)nc2)cc1 (centres unmarked)

>  <OUTCOME_MEASURE>
pIC50

>  <QUANTITATIVE_READOUT>
6.64

$$$$
>  <COMPOUND>
CCNC(=O)C(C)c1ccc(O[C@@H]2CCN(c3ccc(OC4CCC4)cc3)C2)cc1 (some centres unmarked)

>  <OUTCOME_MEASURE>
pIC50

>  <QUANTITATIVE_READOUT>
7.39

$$$$
>  <COMPOUND>
CC(=O)N[C@@H](C)c1ccc(OC2CCN(c3ccnc(Oc4cccnc4)c3)C2)cc1 (some centres unmarked)

>  <OUTCOME_MEASURE>
pIC50

>  <QUANTITATIVE_READOUT>
6.45

$$$$
>  <COMPOUND>
CCCOc1ccc(N2CCC(Oc3ccc([C@H](C)NC(C)=O)cc3)C2)c(C#N)c1 (some centres unmarked)

>  <OUTCOME_MEASURE>
pIC50

>  <QUANTITATIVE_READOUT>
6.81

$$$$
>  <COMPOUND>
CCNC(=O)C(C)c1ccc(C#Cc2ccc(OCC3CCOCC3)cc2)cc1 (centres unmarked)

>  <OUTCOME_MEASURE>
pIC50

>  <QUANTITATIVE_READOUT>
6.05

$$$$
>  <COMPOUND>
CCOc1ccc(C#Cc2ccc(C(C)C(=O)NC(C)CC)cc2)cc1 (centres unmarked)

>  <OUTCOME_MEASURE>
pIC50

>  <QUANTITATIVE_READOUT>
5.55

$$$$
>  <COMPOUND>
CCOc1ccc(C#Cc2ccc(C(C)C(=O)NCc3ccno3)cc2)cc1 (centres unmarked)

>  <OUTCOME_MEASURE>
pIC50

>  <QUANTITATIVE_READOUT>
4.73

$$$$
>  <COMPOUND>
CC(=O)N[C@@H](C)c1ccc(O[C@@H]2CCN(c3cccc(OCC4CC4)c3)C2)cc1

>  <OUTCOME_MEASURE>
pIC50

>  <QUANTITATIVE_READOUT>
6.65

$$$$
>  <COMPOUND>
CC(=O)NCCc1ccc(C#Cc2ccc(Oc3ccccc3)nc2)cc1

>  <OUTCOME_MEASURE>
pIC50

>  <QUANTITATIVE_READOUT>
5.85

$$$$
>  <COMPOUND>
CC(=O)NC(C)Cc1ccc(C#Cc2cnc(N3CCOCC3)nc2)cc1 (centres unmarked)

>  <OUTCOME_MEASURE>
pIC50

>  <QUANTITATIVE_READOUT>
6.14

$$$$
>  <COMPOUND>
C[C@H](NC(=O)c1cnc(N)s1)c1ccc(O[C@@H]2CCN(c3ccc(OCC4CC4)cc3)C2)cc1

>  <OUTCOME_MEASURE>
pIC50

>  <QUANTITATIVE_READOUT>
6.80

$$$$
>  <COMPOUND>
CCOc1ccc(C#Cc2ccc(CC(C)NC(=O)C3CCCO3)cc2)cc1 (centres unmarked)

>  <OUTCOME_MEASURE>
pIC50

>  <QUANTITATIVE_READOUT>
6.05

$$$$
>  <COMPOUND>
CC(=O)Nc1nc(C(=O)N[C@@H](C)c2ccc(C3CN(c4ccc(OCC5CC5)cc4)C3)cc2)cs1

>  <OUTCOME_MEASURE>
pIC50

>  <QUANTITATIVE_READOUT>
5.79

$$$$
